Would you mind telling me the reported protein stability index of each entry?
Test: protein stability index of a GFP-peptide fusion (GPS, HEK-293T) (PSI 1-6); higher = more stable;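 also: 24-mer peptide tiles fused after GFP, lentivirally expressed, FACS-sorted into six equal bins by GFP/DsRed ratio, decoded by Illumina sequencing, PSI is the read-weighted mean bin number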
Settings: treatment: MLN4924 1 uM, 8 h; c terminus: a fixed tail appended

Sure, the documented protein stability index for NSHQDFWTVWSGNRASLYSFPEPE [PRAME] is 2.67

Sure, the documented protein stability index for TFESPADAKDAARDMNGKSLDGKA [RBMX] is 5.55

Sure, the documented protein stability index for GSSNVGINRWRFLLQCLEDLDANL [CRY1] is 2.4

Sure, the documented protein stability index for VNEFGMSGEDPTAAAPVAEVPTAA [CLPTM1] is 5.39

Sure, the documented protein stability index for KILVGNRLHLAFKRQVPTEQAQAY [RAB40B] is 2.5

Sure, the documented protein stability index for TRHVFTCGRRGIKVWSLTGQVAED [TLE6] is 2.68

Sure, the documented protein stability index for NRFVQLSGRPHLPGKKKIRWDPVR [KLHDC10] is 2.49

Sure, the documented protein stability index for SSIGRLFGKKEKGRLIQLSRDGAT [PPFIA4] is 3.38

Sure, the documented protein stability index for SESPGSLSEVLAQPQGALAPPNCE [DNAAF3] is 5.17

Sure, the documented protein stability index for VLVLAVQVHAWQLYYSKKLLDSWF [JAGN1] is 3.06

Sure, the documented protein stability index for EPTEVEEVVPALEPTETLLSEKEI [BCL2L13] is 5.71

Sure, the documented protein stability index for YLLALTIIVSIVHSVFEFLAFKND [CLPTM1] is 2.85

Sure, the documented protein stability index for YCESHAKARVKPPEGYDVVAVYPN [PDLIM4] is 4.08

###

Assay: protein stability index of a GFP-peptide fusion (GPS, HEK-293T) (PSI 1-6); higher = more stable
Conditions: treatment: DMSO; c terminus: a fixed tail appended
Would you mind telling me the reported protein stability index of each entry?

Sure, the documented protein stability index for RPMSEPGAGAGSSLLDVAEPGGPG [SMAD6] is 5.11

Sure, the documented protein stability index for EKKGLHEKALQVLVDQSKKANSPL [VPS39] is 4.65

Sure, the documented protein stability index for SMLSKNPEDRPSLDDIIRHDFFLQ [PLK2] is 3

Sure, the documented protein stability index for QFGLLSFFFAVLHAIYSLSYPMRR [STEAP1] is 3.28

Sure, the documented protein stability index for FFRKLLDCCQVSAPNRFFQKLNVF [NLN] is 2.02

Sure, the documented protein stability index for HVSDEDNNADLCLTDDKQVLNTQG [DLC1] is 5.34

Sure, the documented protein stability index for YRFLLYGLHEGKRLGPLSAEGTTG [TNXB] is 2.8

Sure, the documented protein stability index for TLNQLQSLQNSLECAMETTEEQTR [NECAB1] is 4.94

Sure, the documented protein stability index for RQEYQKALQEYSSISEKLSSTNFA [C8orf76] is 3.48

Sure, the documented protein stability index for KLHYPELYVLKGGYKEFFMKCQSY [CDC25A] is 2.42

Sure, the documented protein stability index for QLERPLPLTSVCYPQDLPRPLRSR [TRAF3IP2] is 4.05

Sure, the documented protein stability index for LWARGTWTQATGLGCALLAAHAVV [SOAT2] is 3.01

Sure, the documented protein stability index for LRKRKEIREDRDRARLDSMVLLIM [DLC1] is 2.08

src = the supplement of paper PMC10567573
